Recorded values, source ChEMBL document CHEMBL1154928.

assay.explanation: Biodistribution in C57BL/6 mouse liver at 10 mg/kg, po after 6 hrs
Format: ADME, organism-based, C57BL6
Parameters: dose 10 mg/kg, route oral
study.conditions: read-out: Drug uptake

smiles.record: OCc1nc(-c2cnc(N3CCC(Oc4ccccc4C(F)(F)F)CC3)s2)no1
u: µM
concentration at 6 h: 6.7

###

assay.explanation: Drug level in C57BL/6 mouse blood at 1 mg/ kg, po after 3 hrs
Format: ADME, organism-based, C57BL6
Set-up: dose 1 mg/ kg, route oral
study.conditions: read-out: Drug uptake

smiles.record: OCc1nc(-c2cnc(N3CCC(Oc4ccccc4C(F)(F)F)CC3)s2)no1
u: µM
concentration at 3 h: 0.18

###

assay.explanation: Ratio of drug level in adipose tissue to plasma in C57BL/6 mouse at 10 mg/kg, po after 6 hrs
Format: ADME, organism-based, C57BL6
Set-up: dose 10 mg/kg, route oral

smiles.record: OCc1nc(-c2cnc(N3CCC(Oc4ccccc4C(F)(F)F)CC3)s2)no1
Kp at 6 h: 8

###

assay.explanation: Drug level in C57BL/6 mouse liver at 0.3 mg/ kg, po after 3 hrs
Assay type: ADME, organism-based, C57BL6
Parameters: dose 0.3 mg/ kg, route oral
study.conditions: read-out: Drug uptake
experimental.endpoint: concentration at 3 h (nM)

smiles.record: OCc1nc(-c2cnc(N3CCC(Oc4ccccc4C(F)(F)F)CC3)s2)no1
value: 1900

###

tgt: Stearoyl-CoA desaturase (Homo sapiens, UniProt O00767)
Sequence (O00767 whole entry): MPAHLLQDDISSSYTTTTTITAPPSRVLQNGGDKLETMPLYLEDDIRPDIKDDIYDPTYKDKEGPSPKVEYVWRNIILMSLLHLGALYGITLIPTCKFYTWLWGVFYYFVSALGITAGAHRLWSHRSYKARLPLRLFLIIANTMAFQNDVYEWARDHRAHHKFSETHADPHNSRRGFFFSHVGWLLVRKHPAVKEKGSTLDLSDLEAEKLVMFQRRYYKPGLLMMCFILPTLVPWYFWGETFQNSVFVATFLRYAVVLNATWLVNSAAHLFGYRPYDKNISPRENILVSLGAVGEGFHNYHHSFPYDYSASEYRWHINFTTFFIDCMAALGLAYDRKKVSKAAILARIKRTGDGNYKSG
assay.explanation: Inhibition of SCD1 in human HepG2 cells assessed as [14C]stearic acid to [14C]oleic acid conversion pretreated 15 mins before [14C]stearic acid addition measured after 4 hrs by HPLC based scintillation assay
Item-by-item account of log10(IC50)
experimental.endpoint: log10(IC50) (log10 of the value in nM)

smiles.record: OCc1nc(-c2cnc(N3CCC(Oc4ccccc4C(F)(F)F)CC3)s2)no1
tgt: Stearoyl-CoA desaturase (Homo sapiens, UniProt O00767)
experimental.endpoint: log10(IC50)
value: 0.00
//
smiles.record: NC(=O)c1cc(N2CCC(Oc3ccccc3C(F)(F)F)CC2)no1
tgt: Stearoyl-CoA desaturase (Homo sapiens, UniProt O00767)
experimental.endpoint: log10(IC50)
value: 1.15
//
smiles.record: NC(=O)c1cnc(N2CCC(Sc3ccccc3C(F)(F)F)CC2)s1
tgt: Stearoyl-CoA desaturase (Homo sapiens, UniProt O00767)
experimental.endpoint: log10(IC50)
value: 1.38
//
smiles.record: FC(F)(F)c1ccccc1OC1CCN(c2ncc(-c3ncco3)s2)CC1
tgt: Stearoyl-CoA desaturase (Homo sapiens, UniProt O00767)
experimental.endpoint: log10(IC50)
value: 1.74
//
smiles.record: NC(=O)c1cnc(N2CC[C@H](Oc3ccccc3C(F)(F)F)C2)s1
tgt: Stearoyl-CoA desaturase (Homo sapiens, UniProt O00767)
experimental.endpoint: log10(IC50)
value: 1.92
//
smiles.record: NC(=O)c1cnc(N2CCN(Cc3ccccc3C(F)(F)F)CC2)s1
tgt: Stearoyl-CoA desaturase (Homo sapiens, UniProt O00767)
experimental.endpoint: log10(IC50)
value: 2.18
//
smiles.record: O=C1CCCN1c1cnc(N2CCC(Oc3ccccc3C(F)(F)F)CC2)s1
tgt: Stearoyl-CoA desaturase (Homo sapiens, UniProt O00767)
experimental.endpoint: log10(IC50)
value: 2.24
//
smiles.record: NC(=O)c1cnc(N2CCN(C(=O)c3ccccc3C(F)(F)F)CC2)s1
tgt: Stearoyl-CoA desaturase (Homo sapiens, UniProt O00767)
experimental.endpoint: log10(IC50)
value: 2.40
//
smiles.record: NC(=O)c1cnc(N2CCC(Oc3ccccc3C(F)(F)F)CC2)s1
tgt: Stearoyl-CoA desaturase (Homo sapiens, UniProt O00767)
experimental.endpoint: log10(IC50)
value: 1.00
//
smiles.record: NC(=O)c1nnc(N2CCC(Oc3ccccc3C(F)(F)F)CC2)o1
tgt: Stearoyl-CoA desaturase (Homo sapiens, UniProt O00767)
experimental.endpoint: log10(IC50)
value: 2.30
//
smiles.record: COC(=O)Nc1cnc(N2CCC(Oc3ccccc3C(F)(F)F)CC2)s1
tgt: Stearoyl-CoA desaturase (Homo sapiens, UniProt O00767)
experimental.endpoint: log10(IC50)
value: 2.89
//
smiles.record: FC(F)(F)c1ccccc1OC1CCN(c2ncc(-c3ncon3)s2)CC1
tgt: Stearoyl-CoA desaturase (Homo sapiens, UniProt O00767)
experimental.endpoint: log10(IC50)
value: 1.20
//
smiles.record: NC(=O)c1csc(N2CCC(Oc3ccccc3C(F)(F)F)CC2)n1
tgt: Stearoyl-CoA desaturase (Homo sapiens, UniProt O00767)
experimental.endpoint: log10(IC50)
value: 3.81
//
smiles.record: Cc1nc(-c2cnc(N3CCC(Oc4ccccc4C(F)(F)F)CC3)s2)no1
tgt: Stearoyl-CoA desaturase (Homo sapiens, UniProt O00767)
experimental.endpoint: log10(IC50)
value: 1.59
//
smiles.record: NS(=O)(=O)c1cnc(N2CCC(Oc3ccccc3C(F)(F)F)CC2)s1
tgt: Stearoyl-CoA desaturase (Homo sapiens, UniProt O00767)
experimental.endpoint: log10(IC50)
value: 3.01
//
smiles.record: NC(=O)c1nnc(N2CCC(Oc3ccccc3C(F)(F)F)CC2)[nH]1
tgt: Stearoyl-CoA desaturase (Homo sapiens, UniProt O00767)
experimental.endpoint: log10(IC50)
value: 3.45
//
smiles.record: NC(=O)c1nnc(N2CCC(Oc3ccccc3C(F)(F)F)CC2)s1
tgt: Stearoyl-CoA desaturase (Homo sapiens, UniProt O00767)
experimental.endpoint: log10(IC50)
value: 0.85
//
smiles.record: FC(F)(F)c1ccccc1OC1CCN(c2ncc(-c3nnco3)s2)CC1
tgt: Stearoyl-CoA desaturase (Homo sapiens, UniProt O00767)
experimental.endpoint: log10(IC50)
value: 1.81

###

tgt: Acyl-CoA desaturase 1 (Rattus norvegicus, UniProt P07308)
Sequence (P07308 whole entry): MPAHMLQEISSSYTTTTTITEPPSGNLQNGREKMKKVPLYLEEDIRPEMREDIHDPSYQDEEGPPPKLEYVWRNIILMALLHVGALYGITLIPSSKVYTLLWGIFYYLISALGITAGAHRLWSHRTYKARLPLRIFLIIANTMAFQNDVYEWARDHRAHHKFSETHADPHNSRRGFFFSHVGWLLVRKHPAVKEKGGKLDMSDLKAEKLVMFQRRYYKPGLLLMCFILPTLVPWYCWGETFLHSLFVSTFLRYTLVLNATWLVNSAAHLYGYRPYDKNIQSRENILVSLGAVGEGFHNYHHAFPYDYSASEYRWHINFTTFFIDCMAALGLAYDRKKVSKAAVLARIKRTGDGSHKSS
pIC50: −log10 of the molar value.
Quick reference for pIC50 among some compounds

smiles.record: NC(=O)c1nnc(N2CCC(Oc3ccccc3C(F)(F)F)CC2)[nH]1
tgt: Acyl-CoA desaturase 1 (Rattus norvegicus, UniProt P07308)
pIC50: 6.90
--
smiles.record: NC(=O)Nc1cnc(N2CCC(Oc3ccccc3C(F)(F)F)CC2)s1
tgt: Acyl-CoA desaturase 1 (Rattus norvegicus, UniProt P07308)
pIC50: 6.82
--
smiles.record: NC(=O)c1nnc(N2CCC(Oc3ccccc3C(F)(F)F)CC2)o1
tgt: Acyl-CoA desaturase 1 (Rattus norvegicus, UniProt P07308)
pIC50: 7.08
--
smiles.record: Cc1nc(-c2cnc(N3CCC(Oc4ccccc4C(F)(F)F)CC3)s2)no1
tgt: Acyl-CoA desaturase 1 (Rattus norvegicus, UniProt P07308)
pIC50: 7.82
--
smiles.record: FC(F)(F)c1ccccc1OC1CCN(c2ncc(-c3ncco3)s2)CC1
tgt: Acyl-CoA desaturase 1 (Rattus norvegicus, UniProt P07308)
pIC50: 7.85
--
smiles.record: NC(=O)c1cnc(N2CCN(Cc3ccccc3C(F)(F)F)CC2)s1
tgt: Acyl-CoA desaturase 1 (Rattus norvegicus, UniProt P07308)
pIC50: 7.12
--
smiles.record: COC(=O)Nc1cnc(N2CCC(Oc3ccccc3C(F)(F)F)CC2)s1
tgt: Acyl-CoA desaturase 1 (Rattus norvegicus, UniProt P07308)
pIC50: 6.12
--
smiles.record: NC(=O)c1nc(N2CCC(Oc3ccccc3C(F)(F)F)CC2)no1
tgt: Acyl-CoA desaturase 1 (Rattus norvegicus, UniProt P07308)
pIC50: 5.79
--
smiles.record: FC(F)(F)c1ccccc1OC1CCN(c2ncc(-c3ncon3)s2)CC1
tgt: Acyl-CoA desaturase 1 (Rattus norvegicus, UniProt P07308)
pIC50: 8.40
--
smiles.record: NC(=O)c1csc(N2CCC(Oc3ccccc3C(F)(F)F)CC2)n1
tgt: Acyl-CoA desaturase 1 (Rattus norvegicus, UniProt P07308)
pIC50: 6.17
--
smiles.record: Cc1nnc(-c2cnc(N3CCC(Oc4ccccc4C(F)(F)F)CC3)s2)s1
tgt: Acyl-CoA desaturase 1 (Rattus norvegicus, UniProt P07308)
pIC50: 6.12
--
smiles.record: NS(=O)(=O)c1cnc(N2CCC(Oc3ccccc3C(F)(F)F)CC2)s1
tgt: Acyl-CoA desaturase 1 (Rattus norvegicus, UniProt P07308)
pIC50: 7.39
